The reported measurements were obtained from PubChem BioAssay AID624361.

# key: entry, value: activity change, negative = inhibition
# Protocol Summary: LMP1-induced NF-kB luciferase signal inhibition – cell-based, EBV LMP1, dry powder, set 2, dose response (AID 624361)
# Applied Conditions: LMP1-induced NF-kappaB luciferase reporter cells, luminescence; at 35 µM (top of the series)
Inconclusive results are not listed. Calls of active or inactive are those of the source. The rule behind the calls is not given here.

Compound Structure: C[C@@H](NC(=O)C[C@@H]1C=C[C@H](NC(=O)Cc2ccccn2)[C@@H](CO)O1)c1ccccc1
activity change, negative = inhibition: 8.29% (inactive)
--
Compound Structure: C[C@@H]1CN([C@@H](C)CO)C(=O)c2c(c3ccccc3n2C)-c2ccccc2CO[C@@H]1CN(C)C(=O)Nc1ccc(F)cc1
activity change, negative = inhibition: -5.35% (inactive)
--
Compound Structure: C[C@@H]1CN([C@H](C)CO)C(=O)Cc2cc(NC(=O)Cc3ccccc3)ccc2O[C@H]1CN(C)Cc1ccc(C(F)(F)F)cc1
activity change, negative = inhibition: -9.16% (inactive)
--
Compound Structure: C[C@@H](NC(=O)C[C@H]1C=C[C@H](NC(=O)Cc2ccccn2)[C@H](CO)O1)c1ccccc1
activity change, negative = inhibition: 9.56% (inactive)
--
Compound Structure: CS(=O)(=O)Nc1ccc2c(c1)[C@H]1C[C@@H](CC(=O)NCC3CC3)O[C@@H](CO)[C@H]1O2
activity change, negative = inhibition: 8.63% (inactive)
--
Compound Structure: C[C@H](CO)N1C[C@H](C)[C@@H](CN(C)Cc2ccc(C(F)(F)F)cc2)Oc2ccc(NC(=O)Cc3ccccc3)cc2CC1=O
activity change, negative = inhibition: -11.3% (inactive)
--
Compound Structure: C[C@@H](NC(=O)C[C@H]1C=C[C@@H](NC(=O)Cc2ccccn2)[C@H](CO)O1)c1ccccc1
activity change, negative = inhibition: -5.56% (inactive)
--
Compound Structure: O=C(Cc1ccccn1)NCC[C@H]1CC[C@H](NC(=O)Nc2ccc(Cl)cc2)[C@H](CO)O1
activity change, negative = inhibition: -1.01% (inactive)

###

# Protocol Summary: LMP1-induced NF-kB luciferase signal inhibition – cell-based, EBV LMP1, dry powder, set 2, dose response (AID 624361)
# Applied Conditions: LMP1-induced NF-kappaB luciferase reporter cells, luminescence; at 35 µM (top of the series)
Results filed as inconclusive are left out.
Property Label: activity change, negative = inhibition (%)

Compound Structure: O=C(Cc1ccccn1)NCC[C@H]1CC[C@@H](NC(=O)Nc2ccc(Cl)cc2)[C@H](CO)O1
Property Label: activity change, negative = inhibition
Unit: %
Result: -2.38

Compound Structure: C/C=C/c1cccc(-c2nc(C(=O)Nc3nccs3)cc3c2[C@@H](CCO)N(C(=O)NC(C)C)C3)c1
Property Label: activity change, negative = inhibition
Unit: %
Result: -17

Compound Structure: COC(=O)C[C@H]1C[C@H]2c3cc(NC(=O)CN(C)C)ccc3O[C@H]2[C@H](CO)O1
Property Label: activity change, negative = inhibition
Unit: %
Result: -4.37

Compound Structure: C[C@@H](NC(=O)C[C@@H]1C=C[C@@H](NC(=O)Cc2ccccn2)[C@H](CO)O1)c1ccccc1
Property Label: activity change, negative = inhibition
Unit: %
Result: 5.05

Compound Structure: C[C@H]1CN([C@@H](C)CO)C(=O)Cc2cc(NC(=O)Cc3ccccc3)ccc2O[C@@H]1CN(C)Cc1ccc(C(F)(F)F)cc1
Property Label: activity change, negative = inhibition
Unit: %
Result: -12.8

Compound Structure: C[C@@H]1CN([C@@H](C)CO)C(=O)c2c(c3ccccc3n2C)-c2ccccc2CO[C@H]1CN(C)C(=O)Nc1ccc(F)cc1
Property Label: activity change, negative = inhibition
Unit: %
Result: -8.29

Compound Structure: C[C@H]1CN([C@@H](C)CO)C(=O)c2c(c3ccccc3n2C)-c2ccccc2CO[C@@H]1CN(C)C(=O)Nc1ccc(F)cc1
Property Label: activity change, negative = inhibition
Unit: %
Result: -12.4

Compound Structure: CCC(=O)N1Cc2cc(C(=O)Nc3nccs3)nc(-c3cccc(-c4ccccc4OC)c3)c2[C@H]1CCO
Property Label: activity change, negative = inhibition
Unit: %
Result: -7.28

Compound Structure: C[C@@H]1CN([C@@H](C)CO)C(=O)Cc2cc(NC(=O)Cc3ccccc3)ccc2O[C@@H]1CN(C)Cc1ccc(C(F)(F)F)cc1
Property Label: activity change, negative = inhibition
Unit: %
Result: -12.6

Compound Structure: C[C@H](NC(=O)C[C@H]1C=C[C@H](NC(=O)Cc2ccccn2)[C@H](CO)O1)c1ccccc1
Property Label: activity change, negative = inhibition
Unit: %
Result: 5.47

Compound Structure: C[C@@H](NC(=O)C[C@@H]1C=C[C@@H](NC(=O)Cc2ccccn2)[C@@H](CO)O1)c1ccccc1
Property Label: activity change, negative = inhibition
Unit: %
Result: 9.33

Compound Structure: C[C@@H](NC(=O)C[C@@H]1C=C[C@H](NC(=O)Cc2ccccn2)[C@H](CO)O1)c1ccccc1
Property Label: activity change, negative = inhibition
Unit: %
Result: -1.52

Compound Structure: COc1ccccc1CNC(=O)C[C@H]1C[C@@H]2c3cc(NC(=O)CN(C)C)ccc3O[C@@H]2[C@@H](CO)O1
Property Label: activity change, negative = inhibition
Unit: %
Result: 0.74

###

# Protocol Summary: LMP1-induced NF-kB luciferase signal inhibition – cell-based, EBV LMP1, dry powder, set 2, dose response (AID 624361)
# Applied Conditions: LMP1-induced NF-kappaB luciferase reporter cells, luminescence; at 35 µM (top of the series)
Inconclusive results are not listed.
Measured activity change, negative = inhibition accompanies every entry in the list below.
Property Label: activity change, negative = inhibition (%)

Compound Structure: C[C@@H](NC(=O)C[C@H]1C=C[C@H](NC(=O)Cc2ccccn2)[C@@H](CO)O1)c1ccccc1
Property Label: activity change, negative = inhibition
Unit: %
Result: 9.43
//
Compound Structure: O=C(Cc1ccccn1)NCC[C@H]1CC[C@@H](NC(=O)Nc2ccc(Cl)cc2)[C@@H](CO)O1
Property Label: activity change, negative = inhibition
Unit: %
Result: -0.381
//
Compound Structure: CS(=O)(=O)Nc1ccc2c(c1)[C@@H]1C[C@H](CC(=O)NCC3CC3)O[C@H](CO)[C@@H]1O2
Property Label: activity change, negative = inhibition
Unit: %
Result: -4.41
//
Compound Structure: C[C@H](NC(=O)C[C@H]1C[C@@H]2c3cc(NC(=O)c4cccnc4)ccc3O[C@@H]2[C@@H](CO)O1)c1ccccc1
Property Label: activity change, negative = inhibition
Unit: %
Result: 0.067
//
Compound Structure: C[C@@H]1CN([C@H](C)CO)C(=O)c2c(c3ccccc3n2C)-c2ccccc2CO[C@@H]1CN(C)C(=O)Nc1ccc(F)cc1
Property Label: activity change, negative = inhibition
Unit: %
Result: -8.91
//
Compound Structure: O=C(C[C@@H]1C[C@H]2c3cc(NS(=O)(=O)c4ccc(F)cc4)ccc3O[C@H]2[C@@H](CO)O1)NC1CCCCC1
Property Label: activity change, negative = inhibition
Unit: %
Result: -2.44
//
Compound Structure: C[C@H]1CN([C@@H](C)CO)C(=O)Cc2cc(NC(=O)Cc3ccccc3)ccc2O[C@H]1CN(C)Cc1ccc(C(F)(F)F)cc1
Property Label: activity change, negative = inhibition
Unit: %
Result: 11.5
//
Compound Structure: Cc1noc(C)c1S(=O)(=O)Nc1ccc2c(c1)C(=O)N([C@H](C)CO)C[C@H](C)[C@@H](CN(C)Cc1ccc(C(F)(F)F)cc1)OCCCC[C@@H](C)O2
Property Label: activity change, negative = inhibition
Unit: %
Result: -11.1
//
Compound Structure: O=C(Cc1ccccn1)NCC[C@@H]1CC[C@@H](NC(=O)Nc2ccc(Cl)cc2)[C@H](CO)O1
Property Label: activity change, negative = inhibition
Unit: %
Result: 10.1
//
Compound Structure: O=C(Cc1ccccn1)NCC[C@@H]1CC[C@@H](NC(=O)Nc2ccc(Cl)cc2)[C@@H](CO)O1
Property Label: activity change, negative = inhibition
Unit: %
Result: 1.94
//
Compound Structure: C[C@H](NC(=O)C[C@@H]1C=C[C@@H](NC(=O)Cc2ccccn2)[C@H](CO)O1)c1ccccc1
Property Label: activity change, negative = inhibition
Unit: %
Result: -0.475
//
Compound Structure: O=C(C[C@H]1C[C@@H]2c3cc(NS(=O)(=O)c4ccc(F)cc4)ccc3O[C@@H]2[C@H](CO)O1)NC1CCCCC1
Property Label: activity change, negative = inhibition
Unit: %
Result: -1.53
//
Compound Structure: O=C(Cc1ccccn1)NCC[C@H]1CC[C@H](NC(=O)Nc2ccc(Cl)cc2)[C@@H](CO)O1
Property Label: activity change, negative = inhibition
Unit: %
Result: -4.61
//
Compound Structure: O=C(C[C@@H]1C[C@@H]2c3cc(NC(=O)c4cccnc4)ccc3O[C@@H]2[C@H](CO)O1)NCC(F)(F)F
Property Label: activity change, negative = inhibition
Unit: %
Result: -2.29
//
Compound Structure: C[C@H](NC(=O)C[C@@H]1C=C[C@H](NC(=O)Cc2ccccn2)[C@@H](CO)O1)c1ccccc1
Property Label: activity change, negative = inhibition
Unit: %
Result: -0.999
//
Compound Structure: O=C(Cc1ccccn1)NCC[C@@H]1CC[C@H](NC(=O)Nc2ccc(Cl)cc2)[C@@H](CO)O1
Property Label: activity change, negative = inhibition
Unit: %
Result: -3.42
//
Compound Structure: COc1ccccc1C(=O)Nc1ccc2c(c1)C(=O)N(C)[C@@H]1CC[C@H](CC(=O)NCCc3ccncc3)O[C@H]1CO2
Property Label: activity change, negative = inhibition
Unit: %
Result: -6.13
//
Compound Structure: C[C@H](CO)N1C[C@H](C)[C@H](CN(C)Cc2ccc(C(F)(F)F)cc2)Oc2ccc(NC(=O)Cc3ccccc3)cc2CC1=O
Property Label: activity change, negative = inhibition
Unit: %
Result: 4.01
//
Compound Structure: C[C@H](NC(=O)C[C@H]1C=C[C@H](NC(=O)Cc2ccccn2)[C@@H](CO)O1)c1ccccc1
Property Label: activity change, negative = inhibition
Unit: %
Result: 3.66
//
Compound Structure: Cc1noc(C)c1S(=O)(=O)Nc1ccc2c(c1)C(=O)N([C@H](C)CO)C[C@@H](C)[C@@H](CN(C)Cc1ccc(C(F)(F)F)cc1)OCCCC[C@@H](C)O2
Property Label: activity change, negative = inhibition
Unit: %
Result: 1.95
//
Compound Structure: CO[C@H]1CN(C)C(=O)c2ccc(NC(=O)C3CC3)cc2OC[C@H](C)N(C(=O)c2ccccn2)C[C@H]1C
Property Label: activity change, negative = inhibition
Unit: %
Result: -14
//
Compound Structure: C[C@@H](NC(=O)C[C@H]1C=C[C@@H](NC(=O)Cc2ccccn2)[C@@H](CO)O1)c1ccccc1
Property Label: activity change, negative = inhibition
Unit: %
Result: 0.795
//
Compound Structure: C[C@H](NC(=O)C[C@H]1C=C[C@@H](NC(=O)Cc2ccccn2)[C@@H](CO)O1)c1ccccc1
Property Label: activity change, negative = inhibition
Unit: %
Result: 11
//
Compound Structure: C[C@@H]1CN([C@H](C)CO)C(=O)c2c(c3ccccc3n2C)-c2ccccc2CO[C@H]1CN(C)C(=O)Nc1ccc(F)cc1
Property Label: activity change, negative = inhibition
Unit: %
Result: -3.16
